The values you see were collected from patent US20140348819A1.

Let's look at some molecules and their measured ability of recombinant RTK ligand to confer resistance.
# Tested on: six V600E BRAF melanoma cell lines
# experiment.notes: Screening of recombinant RTK ligands for ability to confer resistance to BRAFi (PLX4720) or MEKi (PD184352) (Table 4)
# Format: cell-based, human
# Design: scale not given here
# settings: A2058, PD184352 - 1 uM, ligand 25 ng/ml
No unit in the answer, please; the number alone is enough.

// known answers, use as guide
VEGF-C (protein, UniProt P49767 112-227, looked up) Vascular endothelial growth …: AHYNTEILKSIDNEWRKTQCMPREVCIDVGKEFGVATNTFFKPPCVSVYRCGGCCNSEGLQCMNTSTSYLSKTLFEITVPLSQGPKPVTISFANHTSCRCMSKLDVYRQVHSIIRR    1.01
GDNF (protein, UniProt P39905 78-211, looked up) Glial cell line-derived …: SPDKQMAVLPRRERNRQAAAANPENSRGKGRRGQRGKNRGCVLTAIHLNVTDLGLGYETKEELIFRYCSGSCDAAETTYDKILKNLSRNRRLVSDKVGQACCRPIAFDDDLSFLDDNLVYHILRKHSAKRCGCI    0.93

Consider the record given below.
Identify measured ability of recombinant RTK ligand to confer resistance associated with flt-3 ligand (FL) (protein, UniProt P49771 27-235, looked up) Fms-related tyrosine kinase 3 …: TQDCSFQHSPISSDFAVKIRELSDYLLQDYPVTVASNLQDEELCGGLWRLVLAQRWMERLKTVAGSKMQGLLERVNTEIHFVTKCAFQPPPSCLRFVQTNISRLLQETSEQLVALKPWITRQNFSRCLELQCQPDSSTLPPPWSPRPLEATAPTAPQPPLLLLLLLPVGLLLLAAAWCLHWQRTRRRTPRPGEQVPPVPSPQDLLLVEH
1.02
